Measured ratio of binding signal (RLU) to isotype control, listed per entry.
Molecular target: T1, full length monkey MSR1 on HEK293.mfMSR1 cells (Macaca fascicularis, UniProt A0A2K5UWE2 1-451)
T1 construct: whole, on cells
T1 sequence: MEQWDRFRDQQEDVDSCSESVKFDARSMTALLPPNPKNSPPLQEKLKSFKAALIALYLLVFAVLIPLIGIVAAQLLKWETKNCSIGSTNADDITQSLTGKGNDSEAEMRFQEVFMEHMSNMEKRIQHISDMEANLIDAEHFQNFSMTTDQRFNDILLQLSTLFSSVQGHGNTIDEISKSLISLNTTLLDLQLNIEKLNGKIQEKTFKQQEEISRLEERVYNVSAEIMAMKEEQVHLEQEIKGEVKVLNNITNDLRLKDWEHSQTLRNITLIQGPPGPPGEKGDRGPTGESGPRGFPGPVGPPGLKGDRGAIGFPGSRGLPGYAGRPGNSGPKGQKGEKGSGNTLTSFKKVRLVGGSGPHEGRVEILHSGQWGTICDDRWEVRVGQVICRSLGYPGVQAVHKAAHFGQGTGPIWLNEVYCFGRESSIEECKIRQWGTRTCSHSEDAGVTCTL
Assay: ECL cell binding, HEK293.mfMSR1 cells, 11 nM
measured.quantity: ratio of binding signal (RLU) to isotype control (fold)

binder	unit.spec	reading
H1H27734P-N297Q (antibody, human IgG1, V domains shown, human IgG1 Fc with N297Q) VH: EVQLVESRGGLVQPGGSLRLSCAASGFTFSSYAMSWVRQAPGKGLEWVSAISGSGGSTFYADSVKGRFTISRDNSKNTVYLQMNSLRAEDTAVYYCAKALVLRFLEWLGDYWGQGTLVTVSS VL: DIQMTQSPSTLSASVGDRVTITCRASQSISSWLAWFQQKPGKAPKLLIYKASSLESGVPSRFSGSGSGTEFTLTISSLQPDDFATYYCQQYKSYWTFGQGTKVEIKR	fold	28
H1H21234N-N297Q (antibody, human IgG1, V domains shown, human IgG1 Fc with N297Q point mutation (EU numbering)) VH: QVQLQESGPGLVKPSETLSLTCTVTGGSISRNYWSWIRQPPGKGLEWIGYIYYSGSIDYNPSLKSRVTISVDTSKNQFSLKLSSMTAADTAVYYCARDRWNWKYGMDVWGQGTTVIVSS VL: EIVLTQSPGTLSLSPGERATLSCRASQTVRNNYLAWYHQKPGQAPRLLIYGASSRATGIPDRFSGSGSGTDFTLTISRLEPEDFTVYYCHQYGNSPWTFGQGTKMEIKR	fold	35
H1H27739P-N297Q (antibody, human IgG1, V domains shown, human IgG1 Fc with N297Q) VH: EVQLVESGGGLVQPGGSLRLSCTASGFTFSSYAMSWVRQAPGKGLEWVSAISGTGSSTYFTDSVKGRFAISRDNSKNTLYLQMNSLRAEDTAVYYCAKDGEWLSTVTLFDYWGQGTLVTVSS VL: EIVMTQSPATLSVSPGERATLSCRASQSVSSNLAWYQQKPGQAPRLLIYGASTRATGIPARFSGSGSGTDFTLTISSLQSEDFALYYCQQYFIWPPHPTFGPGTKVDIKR	fold	20
H1H27731P-N297Q (antibody, V domains shown, human IgG1 Fc with N297Q) VH: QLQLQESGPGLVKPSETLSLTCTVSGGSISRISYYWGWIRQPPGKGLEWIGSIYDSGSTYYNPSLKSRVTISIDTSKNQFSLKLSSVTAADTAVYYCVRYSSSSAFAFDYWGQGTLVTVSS VL: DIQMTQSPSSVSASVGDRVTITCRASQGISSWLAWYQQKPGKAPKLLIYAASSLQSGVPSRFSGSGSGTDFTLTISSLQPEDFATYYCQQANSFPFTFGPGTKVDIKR	fold	43
